Kindly state AUC for each of the entries shown.
Biological target: T1, human CEACAM5 (carcinoembryonic antigen, CEA) on cells (human, UniProt P06731 35-685)
T1 construct: endogenous on MKN45 gastric adenocarcinoma cells; full-length cDNA stably transfected in the CHO-K1 clones; also called huCEACAM5; MKN45 cells
T1 sequence: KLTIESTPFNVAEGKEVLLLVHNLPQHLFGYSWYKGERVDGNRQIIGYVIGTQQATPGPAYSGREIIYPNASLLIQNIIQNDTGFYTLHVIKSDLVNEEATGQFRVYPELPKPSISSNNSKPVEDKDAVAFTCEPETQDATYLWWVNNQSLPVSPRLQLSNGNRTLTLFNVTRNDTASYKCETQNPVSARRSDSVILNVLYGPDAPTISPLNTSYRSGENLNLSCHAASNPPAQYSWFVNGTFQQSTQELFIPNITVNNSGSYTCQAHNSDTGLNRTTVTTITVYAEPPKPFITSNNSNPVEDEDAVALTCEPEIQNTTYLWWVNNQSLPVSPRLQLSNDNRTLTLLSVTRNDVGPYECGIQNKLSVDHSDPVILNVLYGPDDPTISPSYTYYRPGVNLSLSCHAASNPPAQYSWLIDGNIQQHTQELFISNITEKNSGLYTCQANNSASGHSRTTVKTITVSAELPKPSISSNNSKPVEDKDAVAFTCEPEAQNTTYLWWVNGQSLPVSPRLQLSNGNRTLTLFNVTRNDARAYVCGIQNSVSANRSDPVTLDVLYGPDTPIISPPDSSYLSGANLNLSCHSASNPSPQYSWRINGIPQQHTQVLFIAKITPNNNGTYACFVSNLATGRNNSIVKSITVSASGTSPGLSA
Test: flow cytometry, MKN45 cells
Set-up: unit not given beside the values
Answer with the value's number alone.

For reference, reported AUC for P1AE3106 (antibody, IgG1, V domains shown, huIgG1 P329G LALA; also called MFE-H25 / MFE-L27) VH: QVQLVQSGAEVKKPGASVKVSCKASGYTFKDSYMHWVRQAPGQGLEWMGWIDPENGDTEYAPKFQGRVTMTTDTSISTAYMELSRLRSDDTAVYYCNEGTPTGPYYFDYWGQGTLVTVSS VL: EIQMTQSPSSLSASVGDRVTITCRASSSVPYMHWYQQKPGKAPKLLIYSTSNLASGVPSRFSGSGSGTDFTLTISSVQPEDFATYYCQQRSSYPLTFGGGTKLEIK stands at 1130

Documented AUC of P1AE3101 (antibody, IgG1, V domains shown, huIgG1 P329G LALA; also called MFE-H24 / MFE-L28; huMFE23-L28-H24) VH: QVQLVQSGAEVKKPGASVKVSCKASGFNIKDSYMHWVRQAPGQGLEWMGWIDPENGDTEYAPKFQGRVTMTTDTSISTAYMELSRLRSDDTAVYYCNEGTPTGPYYFDYWGQGTLVTVSS VL: EIQMTQSPSSLSASVGDRVTITCRASSSVPYMHWLQQKPGKAPKLLIYSTSNLASGVPSRFSGSGSGTDFTLTISSVQPEDFATYYCQQRSSYPLTFGGGTKLEIK : 104000

Form: binder = P1AE3102 (antibody, IgG1, V domains shown, huIgG1 P329G LALA; also called MFE-H29 / MFE-L27; huMFE23-L27-H29) VH: QVQLVQSGAEVKKPGSSVKVSCKASGFNIKDSYMHWVRQAPGQGLEWMGWIDPENGDTEYAPKFQGRVTITTDESTSTAYMELSSLRSEDTAVYYCNEGTPTGPYYFDYWGQGTLVTVSS VL: EIQMTQSPSSLSASVGDRVTITCRASSSVPYMHWYQQKPGKAPKLLIYSTSNLASGVPSRFSGSGSGTDFTLTISSVQPEDFATYYCQQRSSYPLTFGGGTKLEIK ; AUC = 91500
